molecular target: T1, IL-1β (UniProt P01584 117-269); experiment: Biacore, periplasmic extract
T1 construct: Antigen immobilised on the Biacore chip

binder | binding result
XPA23 light chain L96E (Fab, V domains shown) VH: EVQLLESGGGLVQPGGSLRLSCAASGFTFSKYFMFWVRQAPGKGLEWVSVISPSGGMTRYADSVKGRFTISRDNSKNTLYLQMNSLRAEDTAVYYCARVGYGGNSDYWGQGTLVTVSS VL: DIQMTQSPSSVSASVGDRLTIICRASQDINRWLAWYQQTPGNAPKLLIHSATSLQSGVPSRFSGSGSGTDFTLTINSLQPEDFATYYCQQADSFPETFGGGTKVEIK | no binding
XPA23 light chain H49E (Fab, V domains shown) VH: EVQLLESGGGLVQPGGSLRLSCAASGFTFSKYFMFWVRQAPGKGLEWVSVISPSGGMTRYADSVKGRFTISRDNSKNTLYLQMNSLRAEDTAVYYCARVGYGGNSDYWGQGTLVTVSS VL: DIQMTQSPSSVSASVGDRLTIICRASQDINRWLAWYQQTPGNAPKLLIESATSLQSGVPSRFSGSGSGTDFTLTINSLQPEDFATYYCQQADSFPLTFGGGTKVEIK | no binding
XPA23 light chain F94Y (Fab, V domains shown) VH: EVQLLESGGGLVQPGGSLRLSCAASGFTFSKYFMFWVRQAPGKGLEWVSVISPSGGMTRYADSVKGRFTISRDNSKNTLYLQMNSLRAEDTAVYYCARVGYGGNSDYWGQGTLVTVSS VL: DIQMTQSPSSVSASVGDRLTIICRASQDINRWLAWYQQTPGNAPKLLIHSATSLQSGVPSRFSGSGSGTDFTLTINSLQPEDFATYYCQQADSYPLTFGGGTKVEIK | no binding

Data origin: patent US20110118131A1
